- System: PC-12
- Protocol notes: Stimulation of NGF-mediated neurite outgrowth in rat PC12 cells incubated for 96 hrs by phase contrast microscopy
- Type: functional, cell-based
Active and inactive are the calls of the source. The calls are words filed in the database; no cut-off is given here.
Give one outcome, nothing more. List: active, inactive

Compound: C=CC(=C)CC[C@]1(C)[C@H](C)C[C@H](OC)[C@@]2(C=O)C(C=O)=C[C@H](OC(=O)C(C)CC)C[C@@H]12 (stereo partly drawn)
Class label: inactive

Each compound tested received a call. Report the one for C=CC(=C)CC[C@]1(C)[C@H](C)CC[C@@]23[C@H](OC(C)=O)O[C@H](OC(C)=O)[C@@H]2CC(=O)C[C@@H]13 .
inactive

I would be grateful if you could indicate the recorded call for C=CC(=C)CC[C@]1(C)[C@H](C)C[C@H](OC)[C@@]23C(=C[C@H](OC(=O)C(C)CC)C[C@@H]12)[C@@H](OC(=O)CCC)O[C@H]3OC(C)=O (stereo partly drawn) .
active

###

- Test system: PC-12
- Protocol notes: Stimulation of NGF-mediated neurite outgrowth in rat PC12 cells incubated for 96 hrs by phase contrast microscopy
- Type: functional, cell-based
Calls of active or inactive are those of the source. The calls are words filed in the database; no cut-off is given here.
Choose the fitting class; nothing outside active, inactive is accepted.

Compound: C=CC(=C)CC[C@]1(C)[C@H](C)C[C@H](OC)[C@@]23C(=C[C@H](OC(=O)CCC)C[C@@H]12)[C@@H](OC(=O)CCC)O[C@H]3OC(C)=O
Class label: active
--
Compound: C=CC(=C)CC[C@]1(C)[C@H](C)C[C@H](OC)[C@@]23C(=C[C@@H](OC(C)=O)C[C@@H]12)[C@@H](OC)O[C@H]3OC(C)=O
Class label: active
--
Compound: C=CC(=C)CC[C@]1(C)[C@H](C)CC[C@@]23C(=CC(=O)C[C@@H]12)[C@@H](OC(=O)CCC)O[C@H]3OC(C)=O
Class label: inactive

Note: attention shifts to another entry.
GET /call?item= C=CC(=C)CC[C@]1(C)[C@H](C)C[C@H](OC)[C@@]23C(=C[C@H](OC(=O)C(C)CC)C[C@@H]12)[C@@H](OC)O[C@H]3OC(C)=O (some centres undefined) returns the recorded outcome of this test.
active

###

- Test system: PC-12
- Protocol notes: Stimulation of NGF-mediated neurite outgrowth in rat PC12 cells incubated for 96 hrs by phase contrast microscopy
- Type: functional, cell-based
The source made the active and inactive calls. The rule behind the calls is not given here.
Your answer must be one of the following: active, inactive

Recorded results for 2 molecules are shown here.
Molecule: C=CC(=C)CC[C@]1(C)[C@H]2C[C@H](OC(=O)C(C)CC)C=C3[C@H](OC)O[C@H](OC(C)=O)[C@@]32[C@H](O)C[C@@H]1C (stereo partly drawn) [CASEAMEMBRIN B]
Target or test system: PC-12
Class label: active
--
Molecule: C=CC(=C)CC[C@]1(C)[C@H](C)C[C@H](OC)[C@@]23C(=CC(=O)C[C@@H]12)[C@@H](OC(C)=O)O[C@H]3OC(C)=O
Target or test system: PC-12
Class label: active

Then this molecule:
// outcome(item) with item = C=CC(=C)CC[C@]1(C)[C@H](C)CC[C@@]23C(=C[C@H](OC(=O)C(C)CC)C[C@@H]12)[C@@H](OC(=O)CCC)O[C@H]3OC(C)=O (stereo partly drawn)
inactive

The reported numbers originate from ChEMBL document CHEMBL3352130.
